molecular target: human CB2 receptor (Homo sapiens (Human), UniProt P34972)
assayReadout: Ki (nM)
Numbers only, in nM.

For the molecule CONC(=O)[C@@H](NC(=O)c1nn(-c2c[n+]([O-])ccn2)c2c1C[C@H]1C[C@@H]21)C(C)(C)C , give its reported Ki. 3.8
